Sourced from patent US20260356851A1

- testTarget: pERK1/2 (Thr202/Tyr204), NCI-1H358 (KRAS G12C) (Homo sapiens, UniProt P01116, G12C)
- Construct: pERK1/2 HTRF read-out
- Sequence (P01116 1-188 isoform P01116-2 G12C): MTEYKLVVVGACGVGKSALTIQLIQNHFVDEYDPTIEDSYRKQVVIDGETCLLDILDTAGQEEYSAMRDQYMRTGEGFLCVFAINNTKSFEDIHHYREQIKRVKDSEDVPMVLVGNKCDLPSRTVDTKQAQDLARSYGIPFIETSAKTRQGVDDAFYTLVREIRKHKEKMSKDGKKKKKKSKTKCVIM
- assayNotes: Assay of intracellular pERK1/2 (Thr202/Tyr204) phosphorylation in NCI-H358 cells (KRAS G12C)
- Type: cell-based
- experimentalSetup: pERK1/2, 2 days, read-out: NCI-H358 (KRAS G12C) IC50
measuredAttribute: IC50 (nM)

compound	resultUnit	IC50
Cc1c(F)c(N)cc(-c2nc3c4c(nc(OC[C@@]56CCCN5C[C@]5(CC5(F)F)C6)nc4c2F)N(C(C)c2cccnc2N)CCO3)c1C(F)(F)F (single isomer, unassigned; diastereomer 2)	nM	0.3

I: CC(c1cccnc1N)N1CCOc2nc(-c3cc(N)cc(F)c3C(F)(F)F)c(F)c3nc(OC[C@@]45CCCN4C[C@H](F)C5)nc1c23 (single isomer, unassigned) [Compound 88]
II: CC(c1cccnc1N)N1CCOc2nc(-c3cc(O)cc4ccc(F)c(F)c34)c(F)c3nc(OC[C@@H]4CCCN4C)nc1c23 (single isomer, unassigned) [Compound 42]
Pick one: I or II . Which has the bigger IC50 number? In your reply, give the label of the chosen option. II
(II: 0.9 nM, I: 0.4 nM)

----------
- testTarget: pERK1/2 (Thr202/Tyr204), NCI-1H441 (KRAS G12V) (Homo sapiens, UniProt P01116, G12V)
- Construct: pERK1/2 HTRF read-out
- Sequence (P01116 1-188 isoform P01116-2 G12V): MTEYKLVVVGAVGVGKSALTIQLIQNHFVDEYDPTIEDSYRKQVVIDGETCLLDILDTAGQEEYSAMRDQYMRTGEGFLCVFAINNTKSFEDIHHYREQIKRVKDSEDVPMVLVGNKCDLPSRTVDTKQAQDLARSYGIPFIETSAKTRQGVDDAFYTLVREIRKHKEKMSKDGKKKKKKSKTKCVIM
- assayNotes: Assay of intracellular pERK1/2 (Thr202/Tyr204) phosphorylation in NCI-H441 cells (KRAS G12V)
- Type: cell-based
- experimentalSetup: pERK1/2, 2 days, read-out: NCI-H441 (KRAS G12V) IC50
measuredAttribute: IC50 (nM)

compound	quantitativeResult
[2H]C1([2H])CC[C@@]2(C([2H])([2H])Oc3nc4c5c(nc(-c6cc(N)c(F)c(C)c6C(F)(F)F)c(F)c5n3)OCCN4C(C)c3cccnc3N)C[C@@]([2H])(F)CN12 (single isomer, unassigned; diastereomer 1) [Compound 178]	0.4

A: Cc1c(F)c(N)cc(-c2nc3c4c(nc(OC[C@@]56CCCN5C[C@H](F)C6)nc4c2F)N([C@H](C)c2cccnc2N)CCO3)c1C(F)(F)F (single isomer, unassigned) [Compound 137]
B: CC(c1cc(F)cnc1N)N1c2nc(OC[C@@]34CCCN3C[C@H](F)C4)nc3c(F)c(-c4c5cn[nH]c5cc5cccc(F)c45)nc(c23)OC[C@@H]1C (stereo partly shown) [Compound 367]
C: Cc1cc(N)cc(-c2nc3c4c(nc(OC[C@@]56CCCN5C[C@H](F)C6)nc4c2F)N(C(C)c2cccnc2N)[C@@H](C)CO3)c1C(F)(F)F (single isomer, unassigned) [Compound 267]
D: Cc1cc(N)cc(-c2nc3c4c(nc(OC[C@@]56CCCN5C[C@H](F)C6)nc4c2F)N(C(C)c2cccnc2N)CCO3)c1C(F)(F)F (single isomer, unassigned) [Compound 62]
hey, can you rank those compounds up there by IC50? biggest number first please Give the labels in the order specified. D, C, B, A
(D: 9 nM, C: 0.6 nM, B: 0.4 nM, A: 0.2 nM)

----------
- testTarget: pERK1/2 (Thr202/Tyr204), PANC-1 (KRAS G121D) (Homo sapiens, UniProt P01116, G12D)
- Construct: pERK1/2 HTRF read-out
- Sequence (P01116 1-188 isoform P01116-2 G12D): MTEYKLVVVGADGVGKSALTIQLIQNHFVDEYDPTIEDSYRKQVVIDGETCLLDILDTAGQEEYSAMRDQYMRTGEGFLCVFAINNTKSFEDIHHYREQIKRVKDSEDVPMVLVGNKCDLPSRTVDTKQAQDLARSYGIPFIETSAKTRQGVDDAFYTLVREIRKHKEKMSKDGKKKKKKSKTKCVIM
- assayNotes: Assay of intracellular pERK1/2 (Thr202/Tyr204) phosphorylation in PANC-1 cells (KRAS G12D)
- Type: cell-based
- experimentalSetup: pERK1/2, 2 days, read-out: PANC-1 (KRAS G12D) IC50
pIC50: −log10 of the molar value.
measuredAttribute: pIC50

1: Cc1c(F)c(N)cc(-c2nc3c4c(nc(OC[C@@]56CCCN5C[C@H](F)C6)nc4c2F)N(C(C)c2cccnc2N)[C@@H](C)CO3)c1C(F)(F)F (single isomer, unassigned) [Compound 263]
2: CCc1c(F)ccc2cc(O)cc(-c3nc4c5c(nc(OC[C@@]67CCCN6C[C@H](F)C7)nc5c3F)N(C(C)c3cccnc3N)[C@@H](C)CO4)c12 (single isomer, unassigned) [Compound 279]
Select the item whose pIC50 value is smaller, choosing between 1 and 2 . In your reply, give the label of the chosen option. 1
(1: 7.46, 2: 9.70)

----------
- testTarget: pERK1/2 (Thr202/Tyr204), NCI-1H358 (KRAS G12C) (Homo sapiens, UniProt P01116, G12C)
- Construct: pERK1/2 HTRF read-out
- assayNotes: Assay of intracellular pERK1/2 (Thr202/Tyr204) phosphorylation in NCI-H358 cells (KRAS G12C)
- Assay type: cell-based
- experimentalSetup: pERK1/2, 2 days, read-out: NCI-H358 (KRAS G12C) IC50
pIC50: −log10 of the molar value.
measuredAttribute: pIC50

A: CC(c1cccnc1N)N1CCOc2nc(-c3cc(O)cc4ccc(F)c(F)c34)c(F)c3nc(OC[C@@]45CCCN4C/C(=C\F)C5)nc1c23 (stereo partly drawn) [Compound 11]
B: CC(c1cccnc1N)N1CCOc2nc(-c3cc(N)cc(Cl)c3C3CC3)c(F)c3nc(OC[C@@]45CCCN4C[C@H](F)C5)nc1c23 (single isomer, unassigned) [Compound 74]
C: Cc1c(-c2nc3c4c(nc(OC[C@@]56CCCN5C[C@H](F)C6)nc4c2F)N(C(C)c2cccnc2N)[C@@H](C)CO3)ccc2cn[nH]c12 (stereo partly drawn) [Compound 324]
Sort the entries above by pIC50, largest first. Give the labels in the order specified. B, A, C
(B: 9.70, A: 9.00, C: 7.55)

----------
- testTarget: pERK1/2 (Thr202/Tyr204), NCI-1H441 (KRAS G12V) (Homo sapiens, UniProt P01116, G12V)
- Construct: pERK1/2 HTRF read-out
- assayNotes: Assay of intracellular pERK1/2 (Thr202/Tyr204) phosphorylation in NCI-H441 cells (KRAS G12V)
- Format: cell-based
- experimentalSetup: pERK1/2, 2 days, read-out: NCI-H441 (KRAS G12V) IC50
measuredAttribute: IC50 (nM)

molecule	testTarget	resultUnit	quantitativeResult
CC(c1cccnc1N)N1c2nc(OC[C@@]34CCCN3C[C@H](F)C4)nc3c(F)c(-c4c(C(F)(F)F)cnc5[nH]ccc45)nc(c23)OC[C@@H]1C (stereo partly shown) [Compound 323]	pERK1/2 (Thr202/Tyr204), NCI-1H441 (KRAS G12V) (Homo sapiens, UniProt P01116, G12V)	nM	2

P: CC(c1cccnc1N)N1c2nc(OC[C@@]34CCCN3C[C@H](F)C4)nc3c(F)c(-c4c5ccccc5cc5[nH]ncc45)nc(c23)OC[C@@H]1C (stereo partly shown) [Compound 348]
Q: CC(c1cccnc1N)N1CCOc2nc(-c3cc(N)cc(F)c3C(F)(F)F)c(F)c3nc(OC[C@@H]4C[C@@H](F)CN4C)nc1c23 (single isomer, unassigned) [Compound 92]
Pick one: P or Q . Which has the bigger IC50 number? In your reply, give the label of the chosen option. Q

a: [2H]C([2H])(Oc1nc2c3c(nc(-c4cc(N)c(F)cc4C(F)(F)F)c(F)c3n1)OCCN2C(C)c1cccnc1N)[C@@H]1C[C@@H](F)CN1C([2H])([2H])[2H] (stereo partly shown) [Compound 136]
b: CC(c1cccnc1N)N1CCOc2nc(-c3cc(N)cc(Cl)c3C(F)(F)F)c(F)c3nc(OC[C@@H]4CCCN4C)nc1c23 (stereo partly shown) [Compound 64]
Pick one: a or b . Which has the bigger IC50 number? In your reply, give the label of the chosen option. a

P: [2H]C1([2H])CN(C([2H])(C)c2cccnc2N)c2nc(OC[C@@]34CCCN3C[C@H](F)C4)nc3c(F)c(-c4cc(N)cc(C)c4C(F)(F)F)nc(c23)O1 (stereo partly shown) [Compound 141]
Q: CC(c1cccnc1N)N1c2nc(OC[C@@]34CCCN3C[C@H](F)C4)nc3c(F)c(-c4cc(N)cc(Cl)c4)nc(c23)OC[C@@H]1C (stereo partly shown) [Compound 306]
Select the item whose IC50 value is smaller, choosing between P and Q . In your reply, give the label of the chosen option. P
(P: 0.7 nM, Q: 40 nM)

----------
- testTarget: pERK1/2 (Thr202/Tyr204), PANC-1 (KRAS G121D) (Homo sapiens, UniProt P01116, G12D)
- Construct: pERK1/2 HTRF read-out
- assayNotes: Assay of intracellular pERK1/2 (Thr202/Tyr204) phosphorylation in PANC-1 cells (KRAS G12D)
- Format: cell-based
- experimentalSetup: pERK1/2, 2 days, read-out: PANC-1 (KRAS G12D) IC50
measuredAttribute: IC50 (nM)

Please review the entries below; each comes with its answer.
molecule	IC50 (nM)
Cc1cc(N)cc(-c2nc3c4c(nc(OC[C@@H]5C[C@@H](F)CN5C)nc4c2F)N(C(C)c2cccnc2N)CCO3)c1C(F)(F)F (some centres unmarked) [Compound 73]	31
[2H]C([2H])(Oc1nc2c3c(nc(-c4cc(N)cc(C)c4C(F)(F)F)c(F)c3n1)OCCN2C(C)c1cccnc1N)[C@@H]1C[C@@H](F)CN1C([2H])([2H])[2H] (single isomer, unassigned) [Compound 132]	14
CC(c1cccnc1N)N1CCOc2nc(-c3cc(N)cc(Cl)c3C(F)(F)F)c(F)c3nc(OC[C@@]45CCCN4C[C@H](F)C5)nc1c23 (some centres unmarked) [Compound 63]	2

a: CC(c1cccnc1N)N1CCOc2nc(-c3cc(N)cc(F)c3C(F)(F)F)c(F)c3nc(OC[C@@]45CCCN4C[C@H](F)C5)nc1c23 (some centres unmarked) [Compound 82]
b: Cc1cc(F)c2sc(N)nc2c1-c1nc2c3c(nc(OC[C@@]45CCCN4C[C@H](F)C5)nc3c1F)N(C(C)c1cccnc1N)[C@@H](C)CO2 (some centres unmarked)
Select the item whose IC50 value is smaller, choosing between a and b . In your reply, give the label of the chosen option. a
